Let's look at some Ki data for Orexin receptor type 2 (Homo sapiens, UniProt O43614) that I collected from the literature.
measured_endpoint: Ki (nM)

The examples below pair each entry with its known result.
compound | experimental_target | Ki / nM
Cc1ccc(-c2ncccn2)c(C(=O)N2CCC[C@@H](Nc3cc(C)nc(C(F)(F)F)n3)[C@@H]2C)c1 (racemic) | Orexin receptor type 2 (Homo sapiens, UniProt O43614) | 243
C[C@@H]1CC[C@@H](Oc2cc(C#N)ccn2)CN1C(=O)c1ccc(OCF)cc1-n1nccn1 | Orexin receptor type 2 (Homo sapiens, UniProt O43614) | 35

1: Cc1ccc(-n2nccn2)c(C(=O)N2C[C@H](COc3nccc4ccccc34)CC[C@H]2C)c1
2: Cc1ccc(-n2nccn2)c(C(=O)N2C(C)C3CC(Nc4cnc(C(F)(F)F)cn4)C2C3)n1 (single isomer, unassigned)
Q: Task for the reader: decide whether 1 or 2 has the larger Ki. Mark your answer with the label of the selected entry.
Result: 2

====

Let's look at some Ki data for Orexin receptor type 2 (Homo sapiens) that I collected from the literature.
measured_endpoint: Ki (µM)

compound | readout_unit | observed
[2H]C([2H])([2H])[C@]1([2H])[C@H]2C[C@@H](Oc3ccc(C(F)(F)F)cn3)[C@H](C2)N1C(=O)c1ncc(C)cc1-n1nccn1 | µM | 1.1

P: Cc1ccc(-n2nccn2)c(C(=O)N2C[C@H](COc3cccc(F)c3)CC[C@H]2C)c1
Q: C[C@H]1[C@H](Oc2cnc(C(F)(F)F)cn2)CCCN1C(=O)c1cccc(F)c1-n1nccn1
Q: Task for the reader: decide whether P or Q has the larger Ki. Mark your answer with the label of the selected entry.
Result: Q

1: C[C@H]1[C@H](Oc2ncc(C(F)(F)F)cc2F)CCCN1C(=O)c1ccccc1-c1ncc(F)cn1
2: O=C(c1cccc(F)c1-c1ncccc1F)N1CC2CN(c3cnc4cc(F)c(F)cc4n3)CC2C1 (stereo not drawn)
3: Cc1ccc(-n2nccn2)c(C(=O)N2CC(COc3ccc(F)cn3)CC2C)c1 (racemic)
4: Cc1cnc(C(=O)N2CCC[C@@H](Nc3ccc(Cl)cn3)[C@@H]2C)c(-c2ncco2)c1
Q: Give the ascending ranking of the items by reported Ki. Give the labels in the order requested.
Result: 3, 2, 1, 4
(3: 0.01 µM, 2: 0.036 µM, 1: 1.3 µM, 4: 4.23 µM)

1: Cc1cnc(-n2nccn2)c(C(=O)N2CCC[C@@H](Oc3ccc(C(F)(F)F)cn3)[C@@H]2C)c1
2: C[C@H]1[C@H](Oc2ccc(C(F)(F)F)cn2)CCCN1C(=O)c1cccc(F)c1-n1nccn1
Q: Field: lower Ki | Options: 1 / 2 Mark your answer with the label of the selected entry.
Result: 2

P: Cc1nc(N2CC3CN(C(=O)c4ncc(Cl)cc4-n4nccn4)CC3C2)nc(C)c1C (stereo not drawn)
Q: C[C@@H]1[C@H]2C[C@@H](Oc3ccc(C(F)(F)F)nc3)[C@H](C2)N1C(=O)c1cccc(F)c1-n1nccn1 (relative stereo)
R: CCOc1ccc(C)nc1C(=O)N1CCC[C@@H](Oc2ccc(C(F)(F)F)cn2)[C@@H]1C
S: Cc1cccc(C(=O)N2CCC[C@@H](Oc3ccc(C(F)(F)F)cn3)[C@@H]2C)c1-n1nccn1
Q: Order these by Ki, descending, and give the full ranking. Give the labels in the order requested.
Result: Q, R, S, P
(Q: 4.9 µM, R: 1.3 µM, S: 0.412 µM, P: 0.026 µM)

P: Cc1nc(N2CC3CN(C(=O)c4cccc(F)c4-c4ncco4)CC3C2)ncc1F (stereo not drawn)
Q: C[C@H]1[C@H](Oc2ncc(C(F)(F)F)cc2F)CCCN1C(=O)c1cccc(F)c1-c1ncccn1
R: Cc1ccc(-c2ncccn2)c(C(=O)N2[C@H](CF)[C@@H]3CC[C@H]2[C@H](Oc2ccc(C(F)(F)F)cn2)C3)n1
Q: Order these by Ki, descending, and give the full ranking. Give the labels in the order requested.
Result: R, Q, P
(R: 3.76 µM, Q: 1.1 µM, P: 0.026 µM)
